Record: pIC50 reported on Dipeptidyl peptidase 3 (Homo sapiens, UniProt Q9NY33).
Sequence (Q9NY33 whole entry): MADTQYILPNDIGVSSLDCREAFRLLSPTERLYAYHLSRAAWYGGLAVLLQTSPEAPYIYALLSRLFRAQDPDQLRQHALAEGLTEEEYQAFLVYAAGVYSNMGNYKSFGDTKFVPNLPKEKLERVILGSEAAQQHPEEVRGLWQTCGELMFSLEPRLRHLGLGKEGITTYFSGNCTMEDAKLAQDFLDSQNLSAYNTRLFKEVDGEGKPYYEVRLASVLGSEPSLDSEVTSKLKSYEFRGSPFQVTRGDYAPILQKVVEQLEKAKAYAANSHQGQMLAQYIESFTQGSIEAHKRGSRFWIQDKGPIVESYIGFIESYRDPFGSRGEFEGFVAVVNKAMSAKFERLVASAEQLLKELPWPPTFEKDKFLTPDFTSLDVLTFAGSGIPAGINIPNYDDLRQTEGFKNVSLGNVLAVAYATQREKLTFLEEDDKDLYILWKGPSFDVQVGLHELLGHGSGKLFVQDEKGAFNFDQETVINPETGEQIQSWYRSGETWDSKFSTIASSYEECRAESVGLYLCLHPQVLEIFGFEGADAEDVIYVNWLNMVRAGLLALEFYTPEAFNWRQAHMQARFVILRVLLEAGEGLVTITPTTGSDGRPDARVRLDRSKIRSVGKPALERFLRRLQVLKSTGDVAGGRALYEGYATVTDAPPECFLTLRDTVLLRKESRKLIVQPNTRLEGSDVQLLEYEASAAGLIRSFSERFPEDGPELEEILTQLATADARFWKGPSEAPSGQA
pIC50: −log10 of the molar value.
recorded.metric: pIC50

- molecule: "c1coc(C2C(c3nc4ccc(C5=NCCN5)cc4[nH]3)C(c3ccco3)C2c2nc3ccc(C4=NCCN4)cc3[nH]2)c1 (configuration not stated)"
  pIC50: 5.10
- molecule: "c1ncc(-c2nc3cc(C4=NCCN4)ccc3[nH]2)[nH]1 [Benzimidazole derivative, 2]"
  pIC50: 4.74
- molecule: "C(=Cc1nc2ccc(C3=NCCN3)cc2[nH]1)c1ccccc1 [Benzimidazole derivative, 3]"
  pIC50: 5.00

[I] N=C(N)c1ccc2nc(C3C(c4ccccc4)C(c4nc5ccc(C(=N)N)cc5[nH]4)C3c3ccccc3)[nH]c2c1 (configuration not stated)
[II] c1ccc(C2C(c3nc4ccc(C5=NCCN5)cc4[nH]3)C(c3ccccc3)C2c2nc3ccc(C4=NCCN4)cc3[nH]2)cc1 (configuration not stated)
Please indicate which item has the smaller measured pIC50: I versus II Return value: the label identifying the chosen record.
I
